Assay: Single oral dose (5 mg/kg) pharmacokinetics of firocoxib in koalas, plasma HPLC, non-compartmental analysis
Conditions: female, koala (Phascolarctos cinereus), plasma, po, 5 mg/kg, Firocoxib plasma concentration, K5 female; 4 h; single oral 5 mg/kg
parameter measured: concentration at 4 h (ng/mL)

[
  {
    "smiles input": "CC1(C)OC(=O)C(OCC2CC2)=C1c1ccc(S(C)(=O)=O)cc1",
    "result unit": "ng/mL",
    "quantitative readout": 51.8
  }
]

---

Assay: Single oral dose (5 mg/kg) pharmacokinetics of firocoxib in koalas, plasma HPLC, non-compartmental analysis
Conditions: male, plasma, po, 5 mg/kg, ke, harmonic mean, male koalas (n = 3); single oral 5 mg/kg
parameter measured: k el

[
  {
    "molecule": "CC1(C)OC(=O)C(OCC2CC2)=C1c1ccc(S(C)(=O)=O)cc1 [firocoxib]",
    "parameter measured": "k el",
    "result": "2.78e-05 s⁻¹"
  }
]

---

Assay: Repeated oral dosing (5 mg/kg every 12 h, six doses) plasma trough concentrations in koalas
Format: in vivo
Details: female, koala (Phascolarctos cinereus), in vivo, Plasma firocoxib concentration (trough)
Protocol: At least 2 months after the initial single oral dose administration study, firocoxib was administered twice daily at a dose of 5 mg/kg orally (as described in the single dose administration) for three consecutive days with the last dose administered 60 h after first administration, with a total of six doses administered. Blood (2 mL) was collected once daily into lithium heparin tubes at […] after first firocoxib dosage (prior to the morning dose). […]
parameter measured: concentration at 48 h (ng/mL)

[
  {
    "smiles input": "CC1(C)OC(=O)C(OCC2CC2)=C1c1ccc(S(C)(=O)=O)cc1",
    "result unit": "ng/mL",
    "quantitative readout": 36.8
  }
]

---

Test: Single oral dose (5 mg/kg) pharmacokinetics of firocoxib in koalas, plasma HPLC, non-compartmental analysis
Settings: female, plasma, po, 5 mg/kg, AUC0-t, K4 female; single oral 5 mg/kg

[
  {
    "smiles input": "CC1(C)OC(=O)C(OCC2CC2)=C1c1ccc(S(C)(=O)=O)cc1",
    "result unit": "ng·h/mL",
    "AUC(0-t)": 954
  }
]

---

Assay: Single oral dose (5 mg/kg) pharmacokinetics of firocoxib in koalas, plasma HPLC, non-compartmental analysis
Conditions: male, plasma, po, 5 mg/kg, AUC0-t, K2 male; single oral 5 mg/kg
parameter measured: AUC(0-t) (ng·h/mL)

[
  {
    "compound": "CC1(C)OC(=O)C(OCC2CC2)=C1c1ccc(S(C)(=O)=O)cc1 [firocoxib]",
    "quantitative readout": 1520
  }
]

---

Experiment: Single oral dose (5 mg/kg) pharmacokinetics of firocoxib in koalas, plasma HPLC, non-compartmental analysis
Conditions: male, plasma, po, 5 mg/kg, MRT0-inf, K2 male; single oral 5 mg/kg

[
  {
    "molecule": "CC1(C)OC(=O)C(OCC2CC2)=C1c1ccc(S(C)(=O)=O)cc1 [firocoxib]",
    "MRT inf / h": 7.13
  }
]

---

Experiment: Single oral dose (5 mg/kg) pharmacokinetics of firocoxib in koalas, plasma HPLC, non-compartmental analysis;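 further: healthy adult koalas, three per sex, anaesthetised the day before dosing for cephalic vein catheterisation, with serial blood draws and firocoxib in plasma quantified by HPLC using fluorescence detection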
Conditions: female, plasma, po, 5 mg/kg, Vz/F, K5 female; single oral 5 mg/kg

[
  {
    "smiles input": "CC1(C)OC(=O)C(OCC2CC2)=C1c1ccc(S(C)(=O)=O)cc1",
    "Vd/F": "616 L"
  }
]
